- System: Human immunodeficiency virus 2
- assay overview: Antiviral activity against HIV-2 ROD infected in human CEM/TK- cells assessed as inhibition of virus-induced cytopathogenicity measured after 4 to 5 days by microscopic analysis
- Assay type: functional, organism-based
- details: Human immunodeficiency virus 2, ROD, CCRF-CEM
assay metric: pEC50
Scale: negative log10 of molar concentration, which is what pEC50 denotes.

Some entries whose results are on file:
CCCCCCCCCCCCCCCCCCOP(=O)(OCc1ccc(OC(=O)CCCC)cc1)OP(=O)(O)OP(=O)(O)OC[C@@H]1C=C[C@H](n2cc(C)c(=O)[nH]c2=O)O1 (stereo not given in full) :: 6.77
CCCCCCCCCCCCCCCCCCOP(=O)(OCCCC)OP(=O)(O)OP(=O)(O)OC[C@@H]1C=C[C@H](n2cc(C)c(=O)[nH]c2=O)O1 (stereo not given in full) :: 7.49
CCCCCCCCCCCCCCCCCCP(=O)(OCc1ccc(OC(=O)CCCC)cc1)OP(=O)(O)OP(=O)(O)OP(=O)(O)OC[C@@H]1C=C[C@H](n2cc(C)c(=O)[nH]c2=O)O1 (stereo not given in full) :: 8.22
CCCCCCCCCCCCCCCCCCP(=O)(OCc1ccc(OC(=O)CCCC)cc1)OP(=O)(O)OP(=O)(O)OC[C@@H]1C=C[C@H](n2cc(C)c(=O)[nH]c2=O)O1 (stereo not given in full) :: 7.38

Lab note: compound CCCCCCCCCCCCCCCCCCP(=O)(OCCCC)OP(=O)(O)OP(=O)(O)OC[C@@H]1C=C[C@H](n2cc(C)c(=O)[nH]c2=O)O1 (stereo not given in full) tested on Human immunodeficiency virus 2; recorded pEC50 was 7.74

###

- assay overview: Half life of the compound in human CEM/0 extracts by RP-18-HPLC analysis
- Assay type: ADME, CCRF-CEM
- details: CEM/0 cell extracts
assay metric: half-life

Short answer for CCCCCCCCCC(=O)Oc1ccc(COP(=O)(OCc2ccc(OC(=O)CCCCCCCCC)cc2)OP(=O)(O)OP(=O)(O)OC[C@@H]2C=C[C@H](n3cc(C)c(=O)[nH]c3=O)O2)cc1 : half-life was 2.8 h

###

- assay overview: Selectivity index, ratio of CC50 for cytotoxicity against human CEM/0 cells to EC50 for antiviral activity against HIV-2 ROD infected in human CEM/0 cells
- Assay type: toxicity, cell-based
- details: read-out: Ratio CC50/EC50
selectivity ratio listing for selected compounds.

Some entries whose results are on file:
CCCCCCCCCCCCCCCCCCOP(=O)(OCc1ccc(OC(=O)CCCC)cc1)OP(=O)(O)OP(=O)(O)OC[C@@H]1C=C[C@H](n2cc(C)c(=O)[nH]c2=O)O1 (stereo not given in full) :: 76
CCCCCCCCCCCCCCCCCCP(=O)(O)OP(=O)(O)OP(=O)(O)OP(=O)(O)OC[C@@H]1C=C[C@H](n2cc(C)c(=O)[nH]c2=O)O1 :: 105
CCCCCCCCCCCCCCCCCCP(=O)(OCc1ccc(OC(=O)CCCC)cc1)OP(=O)(O)OP(=O)(O)OC[C@@H]1C=C[C@H](n2cc(C)c(=O)[nH]c2=O)O1 (stereo not given in full) :: 452
Cc1cn([C@H]2C=C[C@@H](COP(=O)(O)OP(=O)(O)OP(=O)(O)OP(=O)(O)O)O2)c(=O)[nH]c1=O :: 454

We next turn to a different compound, shown below.
Short answer for Cc1cn([C@H]2C=C[C@@H](CO)O2)c(=O)[nH]c1=O : selectivity ratio was 1

###

- assay overview: Stability of compound assessed as pig liver esterase mediated hydrolysis by measuring half life by RP-18-HPLC analysis
- Format: ADME, tissue-based, Sus scrofa
assay metric: half-life (min)
Write the answer as a number in min, unit excluded.

Short answer for CCCCCCCCCC(=O)Oc1ccc(COP(=O)(OCc2ccc(OC(=O)CCCCCCCCC)cc2)OP(=O)(O)OP(=O)(O)OC[C@@H]2C=C[C@H](n3cc(C)c(=O)[nH]c3=O)O2)cc1 : half-life was 4.92

###

- assay overview: Lipophilicity of the compound assessed as retention time by RP-18-HPLC analysis
- Type: physicochemical
assay metric: Retention_time (min)
Write the answer as a number in min, unit excluded.

Some entries whose results are on file:
CCCCCCCCCC(=O)Oc1ccc(COP(=O)(OCc2ccc(OC(=O)CCCCCCCCC)cc2)OP(=O)(O)OP(=O)(O)OC[C@@H]2C=C[C@H](n3cc(C)c(=O)[nH]c3=O)O2)cc1 :: 16.3
CCCCCCCCCCCCOP(=O)(OCCCCCCCCCCCC)OP(=O)(O)OP(=O)(O)OP(=O)(O)OC[C@@H]1C=C[C@H](n2cc(C)c(=O)[nH]c2=O)O1 :: 14.7
CCCCCCCCCCCCCCCCCCOP(=O)(OCc1ccc(OC(=O)CCCC)cc1)OP(=O)(O)OP(=O)(O)OP(=O)(O)OC[C@@H]1C=C[C@H](n2cc(C)c(=O)[nH]c2=O)O1 (stereo partly specified) :: 15.3
CCCCCCCCCCCCCCCCCCOP(=O)(OCCCC)OP(=O)(O)OP(=O)(O)OP(=O)(O)OC[C@@H]1C=C[C@H](n2cc(C)c(=O)[nH]c2=O)O1 (stereo partly specified) :: 14.5
CCCCCCCCCC(=O)Oc1ccc(COP(=O)(OCc2ccc(OC(=O)CCCCCCCCC)cc2)OP(=O)(O)OP(=O)(O)OP(=O)(O)OC[C@@H]2C=C[C@H](n3cc(C)c(=O)[nH]c3=O)O2)cc1 :: 15.2

We next turn to a different compound, shown below.
Short answer for CCCCCCCCCCCCCCCCCCP(=O)(OCC(CC)CCCC)OP(=O)(O)OP(=O)(O)OP(=O)(O)OC[C@@H]1C=C[C@H](n2cc(C)c(=O)[nH]c2=O)O1 (stereo partly specified) : Retention_time was 15.1

###

- assay overview: Cytotoxicity against human CEM/0 cells assessed as inhibition of cell proliferation
- Type: toxicity, cell-based, CCRF-CEM
assay metric: CC50 (µM)
Write the answer as a number in µM, unit excluded.

Short answer for CCCCCCCCCCCCCCCCCCOP(=O)(OCc1ccc(OC(=O)CCCC)cc1)OP(=O)(O)OP(=O)(O)OC[C@@H]1C=C[C@H](n2cc(C)c(=O)[nH]c2=O)O1 (stereo partly specified) : CC50 was 13

###

- assay overview: Selectivity index, ratio of CC50 for cytotoxicity against human CEM/TK- cells to EC50 for antiviral activity against HIV-2 ROD infected in human CEM/TK- cells
- Type: toxicity, cell-based
- details: read-out: Ratio CC50/EC50
assay metric: selectivity ratio
Form rule: numeric answer, no unit written next to it.

Short answer for Cc1cn([C@H]2C=C[C@@H](CO)O2)c(=O)[nH]c1=O [STAVUDINE] : selectivity ratio was 1

Hello, the source for this data is ChEMBL document CHEMBL5344442, in case you need it.
